Overview of reported MFI across a group of binders:
Biological target: full-length recombinant H3 HA (A/Wisconsin/67/2005) on PER.C6 cells (influenza A virus (H3N2))
Assay: FACS, IgG 5 µg/ml, HA-expressing PER.C6 cells; untransfected MFI 3
RECORDED METRIC: MFI (MFI)

binder="CR8049 (antibody, V domains shown) VH: QVTLKESGPVLVKPKETLTLTCTVSGFSLSNTRMGVSWIRQPPGKALEWLAHIFSNDETSYRTSLKRRLTISQDISKSQVVLSMTNVDPADTATYFCARIGSGYESSAYSTWLDP VL: QVQLQQWGAGLLKPSETLSLTCAVYGGSFTDHYWSWIRQSPGKGLEWIGEVVHSGDTNYTPSLRNRVSISVDSSKNQFSLRLGSVTAADTAVYYCARGRNVAVVGAIQRHYDY" observed_measurement=542
binder="CR8003 (antibody, V domains shown) VH: EVQLVETGGDLVQPGGSLRLSCSASEFSFSSYWMSWVRQAPGKGLEWVANMKQDGSEKYYVDSVKGRFTISRDNAKNSLYLQMNSLRGEDTAVYYCARGSCDDSWTGCHDAFDI VL: VLTQPPSVSVAPGQTARIACGGNNIGSKSVHWYQQKPGQAPVLVVYDDSARPSGIPERFSGSNSGNTATLTISRVEAGDEADYYCQVWESGSDLRLL" observed_measurement=657
binder="CR8016 (antibody, V domains shown) VH: EVQLVESGGDLVQPGGSLRLSCSASEFSFSSYWMSWVRQAPGKGLEWVANMKQDGSEKYYVDSVKGRFTISRDNAKNSLYLQMNSLRGEDTAVYYCARGSCDDSWTGCHDAFDI VL: QSVVTQPPSVSGAPGQRVTISCTGSSSNIGAGYDVHWYQQLPGTAPKLLIYGNNNRPSGVPDRFSGSRSGPLALLAITGLQAEDEADYYCQSYDSSLSVYV" observed_measurement=840
